# Test system: Blood
# experimentNotes: Inhibition of calcium ionophore-stimulated LTB4 production in human whole blood
# Type: functional, tissue-based
experimentalEndpoint: IC50 (nM)

O=C(Nc1cccnc1)Oc1ccc(OCc2nc3ccccc3s2)cc1C1(c2ccccc2)CC2CCC1C2 (single isomer, unassigned; (-)): 37

(1) O=C(Nc1cccnc1)Oc1ccc(OCc2nc3ccccc3s2)cc1C1(c2ccccc2)CC2CCC1C2 (racemic)
(2) O=C(Nc1cccnc1)Oc1ccc(OCc2nc3ccccc3s2)cc1C1(c2ccccc2)CC2CCC1C2 (stereo not drawn)
Challenge: I would appreciate it if you could say which entry, 1 or 2 , has the lower IC50 value. // output: label of the selected item
Response given: 1

Data provenance is ChEMBL document CHEMBL1141525.
